The reported measurements were obtained from ChEMBL document CHEMBL1201862.

Attribute: GI50
- Test system: Malme-3M
- assay: NCI tumour cell line growth inhibition, 48 h
Calls of active or inactive are those of the source. Cut-off read from the data, not from the text of the source: active = GI50 up to about 1.1 µM and inactive = higher.

Known results for compounds:
Q: For the compound C=C1CCOC2(C(O)C(C)(O)CO)NC(=O)C1(O)NC2=O (stereo unspecified) , give its measured GI50 value.
Ans: > 100 µM (inactive)

Q: Consider the compound Oc1ccc(-c2c3ccccc3c(-c3ccc(O)cc3)c3ccccc23)cc1 and give its recorded GI50.
Ans: > 100 µM (inactive)

Q: Give the reported GI50 for this compound. CN1CCS(=O)(=O)NC(Cc2ccccc2)C(=O)N2CCCC2C1=O (stereo unspecified)
Ans: > 100 µM (inactive)

Q: Look up and report measured GI50 for this entry: COC(=O)/C=C1/CCC(C)(C(=O)NS(=O)(=O)c2ccc(C)cc2)C1(C)C (stereo unspecified)
Ans: > 100 µM (inactive)

Q: Return GI50 for the following compound: O=C1N=C2SC=C(NC(=S)Nc3ccccc3)N2NC12c1ccccc1-c1ccccc12
Ans: > 10 µM (inactive)

Attention now turns to another entry.
Q: Given O=C(c1nc2ccccc2nc1O)C(O)c1ccccc1 (stereo unspecified) , respond with its GI50.
Ans: > 100 µM (inactive)
